Molecular target: T1, human MSLN-hFc protein (Acro, Cat. No. MSN-H5253) (human, UniProt Q13421 296-580)
T1 construct: the method names the coated protein as human MSLN-hFc (Acro); also called human MSLN full-length protein
T1 sequence (Q13421 other isoform, or with tags, fused parts or gaps limits assumed): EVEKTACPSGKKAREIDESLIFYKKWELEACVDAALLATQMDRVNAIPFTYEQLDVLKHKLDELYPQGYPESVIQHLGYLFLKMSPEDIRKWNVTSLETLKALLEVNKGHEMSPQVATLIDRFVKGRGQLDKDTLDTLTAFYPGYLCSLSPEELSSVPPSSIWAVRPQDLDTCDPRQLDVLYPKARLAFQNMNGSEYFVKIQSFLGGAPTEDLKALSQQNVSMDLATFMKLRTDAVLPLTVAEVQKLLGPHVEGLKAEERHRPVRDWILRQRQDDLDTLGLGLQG
Test: ELISA on coated antigen, antibody 1 nM
Form field: OD450 (one value per entry).
Output spec: scalar in OD450, unitless text.

Reference set (3 entries):
# input So what's the measured OD450 for this one? F7.44.20-H2 (scFv, not shown: small tags and cut ends, also called S009-F7.44.20 humanized antibody VH1 + VL2) scFv: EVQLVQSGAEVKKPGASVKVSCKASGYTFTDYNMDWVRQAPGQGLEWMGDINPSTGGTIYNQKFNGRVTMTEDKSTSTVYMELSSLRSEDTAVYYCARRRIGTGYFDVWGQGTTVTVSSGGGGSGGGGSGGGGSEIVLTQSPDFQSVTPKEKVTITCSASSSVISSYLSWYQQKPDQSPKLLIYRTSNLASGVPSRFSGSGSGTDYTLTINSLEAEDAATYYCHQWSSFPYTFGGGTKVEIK
# output 1.26

# input Entry to check: F7.44.20 (scFv, not shown: small tags and cut ends, also called S009-F7.44.20 (parental variable regions, in the humanized-antibody ELISA)) scFv: EVQLQQSGPELVKPGASVKIPCKASGYTFTDYNMDWVKQSHGKSLEWIGDINPSTGGTIYNQKFNGKATLTEDKSASTVYMEFRSLTSDDTAVYYCARRRIGTGYFDVWGTGTTVTVSSGGGGSGGGGSGGGGSQIVLTQSPALMSASPGEKVTLTCSASSSVISSYLSWYQQKPGSSPKLLIYRTSNLASGVPARFSGSGSGTSYSLTISSMEAEDAASYFCHQWSSFPYTFGGGTKLEIK
# output 0.83

# input Entry to check: F7.44.20-H7 (scFv, not shown: small tags and cut ends, also called S009-F7.44.20 humanized antibody VH1a + VL3) scFv: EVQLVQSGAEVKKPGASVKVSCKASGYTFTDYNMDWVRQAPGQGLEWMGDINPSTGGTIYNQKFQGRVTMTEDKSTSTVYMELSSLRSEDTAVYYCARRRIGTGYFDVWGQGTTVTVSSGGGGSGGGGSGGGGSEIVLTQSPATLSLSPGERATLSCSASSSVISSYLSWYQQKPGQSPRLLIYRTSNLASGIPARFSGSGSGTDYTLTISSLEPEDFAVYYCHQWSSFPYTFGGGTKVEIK
# output 1.74

Next:
# input So what's the measured OD450 for this one? F7.44.20-H4 (scFv, not shown: small tags and cut ends, also called S009-F7.44.20 humanized antibody VH1 + VL4) scFv: EVQLVQSGAEVKKPGASVKVSCKASGYTFTDYNMDWVRQAPGQGLEWMGDINPSTGGTIYNQKFNGRVTMTEDKSTSTVYMELSSLRSEDTAVYYCARRRIGTGYFDVWGQGTTVTVSSGGGGSGGGGSGGGGSEIVLTQSPATLSLSPGERATLSCSASSSVISSYLSWYQQKPGSSPRLLIYRTSNLASGIPARFSGSGSGTDYTLTISSLEPEDFAVYYCHQWSSFPYTFGGGTKVEIK
# output 1.14

# input Entry to check: F7.44.20-H12 (scFv, not shown: small tags and cut ends, also called S009-F7.44.20 humanized antibody VH2 + VL4) scFv: EVQLVQSGAEVKKPGASVKVSCKASGYTFTDYNMDWVRQAPGQGLEWMGDINPSTGGTIYNQKFNGRVTMTEDKSASTVYMELSSLRSEDTAVYYCARRRIGTGYFDVWGQGTTVTVSSGGGGSGGGGSGGGGSEIVLTQSPATLSLSPGERATLSCSASSSVISSYLSWYQQKPGSSPRLLIYRTSNLASGIPARFSGSGSGTDYTLTISSLEPEDFAVYYCHQWSSFPYTFGGGTKVEIK
# output 1.02
